Below, each entry is listed alongside its reported solubility.
protocol text: Solubility of cyclic peptide compound in 50 mM phosphate buffer solution (pH 6.5), 37° C. (Example 3-3)
Type: physicochemical
condition context: shaking 22 to 24 hours, read-out: solubility in 50 mM phosphate buffer solution (PPB)
Bridge positions count the residues as written; N and C are the ends. Square brackets hold non-standard residues; d marks the D form. Peptide text beside a SMILES is read from it. * marks the point of attachment. hPhe(3,5-F2-4-CF3) = N[C@@H](CCc1cc(F)c(C(F)(F)F)c(F)c1)C(=O)O; hPhe(3-Cl-4-CF3) = N[C@@H](CCc1ccc(C(F)(F)F)c(Cl)c1)C(=O)O; NMePhe(4-Me) = CN[C@@H](Cc1ccc(C)cc1)C(=O)O; NMeGly(cPent) = CN[C@H](C(=O)O)C1CCCC1; NMeCha = CN[C@@H](CC1CCCCC1)C(=O)O; Hyp = O=C(O)[C@@H]1C[C@@H](O)CN1; NMeF = CN[C@@H](Cc1ccccc1)C(=O)O; NMeI = CC[C@H](C)[C@H](NC)C(=O)O; NMeD = CN[C@@H](CC(=O)O)C(=O)O; NMeL = CN[C@@H](CC(C)C)C(=O)O; NMeV = CN[C@H](C(=O)O)C(C)C; NMeA = CN[C@@H](C)C(=O)O; Piperidide = C1CCN(*)CC1; Ac5c = NC1(C(=O)O)CCCC1; Aze = O=C(O)[C@@H]1CCN1; Sar = CNCC(=O)O; tBu = CC(C)(C)*
experimental readout: solubility (µg/mL)

* CC[C@H](C)[C@@H]1NC(=O)[C@H](CC(C)C)N(C)C(=O)C[C@@H](C(=O)N2CCCCC2)N(C)C(=O)[C@H](C2CCCC2)N(C)C(=O)C2(CCCC2)NC(=O)[C@@H]2CCCN2C(=O)[C@H](CCc2ccc(C(F)(F)F)c(Cl)c2)NC(=O)CN(C)C(=O)[C@H](CC2CCCCC2)N(C)C(=O)[C@@H]2CCN2C(=O)[C@H](C)N(C)C1=O [Compound 6] ([NMeL]I[NMeA][Aze][NMeCha][Sar][hPhe(3-Cl-4-CF3)]P[Ac5c][NMeGly(cPent)][NMeD]-Piperidide; lactam N-11) | 1
* CC(C)C[C@@H]1NC(=O)[C@H](Cc2ccccc2)N(C)C(=O)[C@@H](C(C)C)NC(=O)C[C@@H](C(=O)N2CCCCC2)NC(=O)[C@H](C(C)C)N(C)C(=O)[C@H](Cc2ccccc2)N(C)C(=O)[C@H](COC(C)(C)C)NC(=O)[C@H](CC(C)C)N(C)C(=O)CN(C)C(=O)[C@H]([C@@H](C)O)NC(=O)[C@H](CC(C)C)N(C)C1=O [Compound 3] ([dV][NMeF]L[NMeL]T[Sar][NMeL]S(tBu)[NMeF][NMeV]D-Piperidide; lactam N-11) | 11
* CC[C@H](C)[C@@H]1NC(=O)[C@H](CC(C)C)N(C)C(=O)C[C@@H](C(=O)N(C)C)N(C)C(=O)[C@H]([C@@H](C)CC)N(C)C(=O)C2(CCCC2)NC(=O)[C@@H]2CCCN2C(=O)[C@H](CCc2ccc(C(F)(F)F)c(Cl)c2)NC(=O)CN(C)C(=O)[C@H](Cc2ccc(C)cc2)N(C)C(=O)[C@@H]2CCN2C(=O)[C@H](C)N(C)C1=O [Compound 7] ([NMeL]I[NMeA][Aze][NMePhe(4-Me)][Sar][hPhe(3-Cl-4-CF3)]P[Ac5c][NMeI][NMeD]-NMe2; lactam N-11) | 15
* CCO[C@@H]1C[C@H]2C(=O)NC3(CCCC3)C(=O)N(C)[C@@H](C3CCCC3)C(=O)N(C)[C@H](C(=O)N(C)C)CC(=O)N(C)[C@@H](CC(C)C)C(=O)N[C@@H]([C@@H](C)CC)C(=O)N(C)[C@@H](C)C(=O)N3CC[C@H]3C(=O)N(C)[C@@H](CC3CCCCC3)C(=O)N(C)CC(=O)N[C@@H](CCc3cc(F)c(C(F)(F)F)c(F)c3)C(=O)N2C1 [Compound 8] ([NMeL]I[NMeA][Aze][NMeCha][Sar][hPhe(3,5-F2-4-CF3)][Hyp](Et)[Ac5c][NMeGly(cPent)][NMeD]-NMe2; lactam N-11) | 5
* CC(C)C[C@@H]1NC(=O)[C@H](Cc2ccccc2)N(C)C(=O)[C@H](COC(C)(C)C)NC(=O)[C@H](Cc2ccccc2)N(C)C(=O)[C@H](C)N(C)C(=O)[C@H](CC(C)C)N(C)C(=O)[C@@H](C)NC(=O)C[C@@H](C(=O)N2CCCCC2)NC(=O)[C@H](Cc2ccccc2)N(C)C(=O)[C@H]([C@@H](C)O)NC(=O)[C@H](CC(C)C)N(C)C1=O [Compound 4] ([dA][NMeL][NMeA][NMeF]S(tBu)[NMeF]L[NMeL]T[NMeF]D-Piperidide; lactam N-11) | 1
